Source of measurements: the supplement of paper PMC13380429

Answer each item with its documented relative viability EC50.
system: Vero E6; assay: relative viability EC50 (midpoint between 100% and the lowest measured viability); higher = less toxic; settings: 72 h
Structures can show the parent of a compound that is named as a salt.

// recorded relative viability EC50 for CCCCCOc1ccc(-c2cc(-c3ccc(C(=O)N[C@H]4C[C@@H](O)[C@@H](O)NC(=O)[C@@H]5[C@@H](O)[C@@H](C)CN5C(=O)[C@H]([C@H](O)CC(N)=O)NC(=O)[C@H]([C@H](O)[C@@H](O)c5ccc(O)c(OS(=O)(=O)O)c5)NC(=O)[C@@H]5C[C@@H](O)CN5C(=O)[C@H]([C@@H](C)O)NC4=O)cc3)no2)cc1 : > 10 µM

// recorded relative viability EC50 for CN1[C@@H]2C[C@@H](OC(=O)[C@H](CO)c3ccccc3)C[C@H]1[C@@H]1O[C@@H]12 [SCOPOLAMINE HYDROBROMIDE] : > 10 µM

// recorded relative viability EC50 for O=C(O)CCCC[C@@H]1SC[C@@H]2NC(=O)N[C@@H]21 : > 10 µM

* * *

system: Calu-3; assay: drug sensitivity score (DSS) for viability; higher = more toxic; extreme values may be limits of the assay; conditions: 72 h
Structures can show the parent of a compound that is named as a salt.
Answer each item with its documented drug sensitivity score.
Respond numerically, and do not add a unit to the figure.

// recorded drug sensitivity score for C[C@@H]1CCO[C@H]2Cn3cc(C(=O)NCc4ccc(F)cc4F)c(=O)c(O)c3C(=O)N12 [dolutegravir] : 0

// recorded drug sensitivity score for C=C[C@H]1CN2CC[C@H]1C[C@H]2[C@H](O)c1ccnc2ccccc12 [cinchonidine] : 0

// recorded drug sensitivity score for COc1cc(C(=O)NC2CCCNC2)cc(OC)c1OC (stereo not drawn) [troxipide] : 0

// recorded drug sensitivity score for COC(=O)C1=CCCN(C)C1 [arecoline] : 0.6

// recorded drug sensitivity score for CCC(=O)O[C@@](Cc1ccccc1)(c1ccccc1)[C@@H](C)CN(C)C [levopropoxyphene] : 0

// recorded drug sensitivity score for CCOC(=O)[C@]12CC1/C(=N\O)c1ccccc1O2 (stereo partly drawn) [CPCCOEt] : 0

// recorded drug sensitivity score for OCCCCO [1,4-butanediol] : 0

// recorded drug sensitivity score for CN1[C@@H]2C[C@@H](OC(=O)[C@H](CO)c3ccccc3)C[C@H]1[C@@H]1O[C@@H]12 [SCOPOLAMINE HYDROBROMIDE] : 0

// recorded drug sensitivity score for OC[C@H]1O[C@H](O[C@H]2O[C@H](CO)[C@@H](O)[C@H](O)[C@H]2O)[C@H](O)[C@@H](O)[C@@H]1O [cabaletta] : 0

// recorded drug sensitivity score for CN(C)Cc1ccc(S(=O)(=O)n2ccc(/C=C/C(=O)NO)c2)cc1 [resminostat] : 6.2

// recorded drug sensitivity score for COc1ccc(-c2nc3cc(C4=NNC(=O)CC4C)ccc3[nH]2)cc1 (stereo not drawn) [pimobendan] : 0

// recorded drug sensitivity score for CN1C/C=C/CCOc2cccc(c2)-c2ccnc(n2)Nc2cccc(c2)C1 [TG-02] : 12.4

// recorded drug sensitivity score for COc1cc2c(cc1OC)CN(CCc1ccc(NC(=O)c3cccc4c(=O)c5cccc(OC)c5[nH]c34)cc1)CC2 [elacridar] : 0

// recorded drug sensitivity score for CCc1cc2cc(OC)c(OC)cc2c(Cc2ccccc2)n1 [moxaverine] : 0

// recorded drug sensitivity score for Cc1c(C(=O)Nc2ccc(N3CCC(N4CCOCC4)CC3)c(C#N)c2)cnn1-c1ccc(Cl)cc1 [Y-320] : 2.2

// recorded drug sensitivity score for CC(C)CN(C[C@@H](O)[C@H](Cc1ccccc1)NC(=O)O[C@H]1CCOC1)S(=O)(=O)c1ccc(N)cc1 [amprenavir] : 0

// recorded drug sensitivity score for CC1(C)Oc2ccc(C#N)cc2[C@@H](OC2=CC(=O)CC2)[C@@H]1O [PCO-400] : 0

// recorded drug sensitivity score for Cc1cc(CC(=O)O)n(C)c1C(=O)c1ccc(Cl)cc1 [zomepirac] : 0
